Values compiled from paper PMC7089779.

# ASSAY METHOD TEXT: Cytotoxic evaluation on HepG2 cell line
# Format: cell-based
# DETAILS: human, HepG2 cells (hepatocarcinoma cell line)
As shown below, each of these compounds has a reported CC50 at 72 h value.

Past entries and their recorded results:
CSc1ccc(OCc2ncc([N+](=O)[O-])n2C)cc1 [Fexinidazole, reference compound] = > 100 µM
O=c1[nH]c2c([N+](=O)[O-])cccc2cc1-c1ccc(C(F)(F)F)cc1 = > 6 µM
CCCCCCCCCCCCCCCCOP(=O)([O-])OCC[N+](C)(C)C [Miltefosine, reference compound] = 84.5 µM
O=C(O)c1ccccc1-c1cc2cccc([N+](=O)[O-])c2[nH]c1=O = > 100 µM
COc1ccc(-c2cc3cccc([N+](=O)[O-])c3[nH]c2=O)cc1 = > 6 µM

Now, please, on to the next compound.
Request: Any idea what CC50 at 72 h was measured for O=c1[nH]c2c([N+](=O)[O-])cccc2cc1-c1ccccc1 ?
Result: > 12 µM
